Hey, just so you know, these numbers are from patent US20200270586A1.

molecular target: LgTrip 3546 (with His tag; SEQ ID NO: 51); conditions: modification not given
Sequence (chain, as listed by the source): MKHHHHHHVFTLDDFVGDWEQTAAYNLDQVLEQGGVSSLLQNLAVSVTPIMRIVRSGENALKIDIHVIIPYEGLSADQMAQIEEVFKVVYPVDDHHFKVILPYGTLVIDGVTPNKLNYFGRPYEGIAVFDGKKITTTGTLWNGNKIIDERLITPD
endpoint: pKd
For clarity, pKd is expressed as the negative log10 of concentration in mol/L.

Please report the recorded pKd for SSWKRMLFRVTINSVS [302] .
6.28
